System: SARS-CoV-2
Experiment: Anti-SARS-CoV-2 activity in Vero cells (virus yield inhibition)
Format: cell-based
Settings: Severe acute respiratory syndrome coronavirus 2, Table 1, read-out: Anti-SARS-CoV-2 Activity (Vero) EC50
MEASURE: EC50 (nM)
Return type: number; implicit unit nM.

Answered cases to consult:
| MOLECULE | EC50 (nM) |
| --- | --- |
| N#C[C@@]1(n2ccc(=O)[nH]c2=O)O[C@H](CO)C(O)C1O (stereo partly drawn) [drawing 119] | 4700 |
| CCC(CC)COC(=O)[C@H](C)N[P@](=O)(OC[C@H]1O[C@@](C#N)(c2ccc3c(N)ncnn23)[C@H](O)[C@@H]1O)Oc1ccccc1 [Remdesivir, reference compound] | 1000 |
| CC(C)C(=O)OC[C@H]1O[C@@](C#N)(n2ccc(N)nc2=O)C(O)C1O (stereo partly drawn) [drawing 122] | 1200 |
| N#C[C@@]1(n2ccc(N)nc2=O)O[C@H](CO)[C@@H](O)[C@H]1O | 600 |

If you can, please state the reported EC50 value of O=c1nc(NO)ccn1[C@@H]1O[C@H](CO)[C@@H](O)[C@H]1O [NHC, N^4-hydroxycytidine, reference compound] .
200

Follow-up item: CCCCCCCC(=O)OC[C@H]1O[C@@](C#N)(n2ccc(N)nc2=O)C(O)C1O (stereo partly drawn) [drawing 123]
400

Follow-up item: CC(C)[C@H](N)C(=O)OC1C(O)[C@](C#N)(n2ccc(N)nc2=O)O[C@@H]1CO (stereo partly drawn) [drawing 124]
2300
